Would you mind telling me the reported T/C of each entry?
- System: L1210 leukemia ip in BDF1 mice, survival T/C
- measurement.description: NCI In Vivo Anticancer Drug Screen. Data for tumor model L1210 Leukemia (intraperitoneal) in B6D2F1 (BDF1) mice
- measurement.parameters: endpoint: mean survival time; dose: 200.0 mg/kg/injection; schedule: Q04DX003 (ip); vehicle: Klucel (hydroxypropylcellulose) (HPC); higher = longer survival
Inconclusive results and toxic doses are left out.

Examples with their reported T/C follow.
>>> observed("C=C(NC(C)=O)C(O)c1ccc([N+](=O)[O-])cc1 (stereo unspecified)")
"98 % of control"
>>> observed("CSc1nc(N)cc(NC(=O)CCl)n1")
"92 % of control"
>>> observed("Nc1ccc(C(=O)Oc2ccc([N+](=O)[O-])cc2)c(O)c1")
"88 % of control"
>>> observed("COc1ccc(NC(=S)NNC(=S)NNc2ccccc2)cc1")
"92 % of control"
>>> observed("CC(=O)c1c(C)c(C)cc(C)c1C")
"103 % of control"
>>> observed("NC(=O)c1nc2ccccc2nc1C(N)=O")
"92 % of control"
>>> observed("CC1(C)CCC(C)(C)c2c1ccc(O)c2Cc1c(O)ccc2c1C(C)(C)CCC2(C)C")
"96 % of control"
>>> observed("CC(=O)CC(=O)NC1CCCCCC1")
"100 % of control"
>>> observed("CC1(C)N=C(N)N=C(N)N1c1ccc(OCC(=O)Nc2ccccc2)c(Cl)c1")
"90 % of control"
>>> observed("O=C(NCc1ccc([N+](=O)[O-])cc1)OCc1ccccc1")
"104 % of control"

Provide reported T/C for each item, in the same order as listed.
1. COc1cc(N(C)C)c(OC)cc1C=O
2. O=C1c2ccccc2C(c2ccccc2)(N(CCCl)CCCl)N1C1CCCCC1 (stereo unspecified)
3. NC(CCn1cnc2c(=O)[nH]cnc21)C(=O)O (stereo unspecified)
4. CN(C)c1ccc(C2SCSCS2)cc1
5. ClC(c1ccccc1)c1ccc(Br)cc1 (stereo unspecified)
6. CCOC(=O)c1[nH]c(-c2ccccc2)c(C(=O)OCC)c1-c1ccccc1

[A]
["95 % of control", "102 % of control", "102 % of control", "101 % of control", "101 % of control", "103 % of control"]

----------
Provide the recorded T/C for the entries that follow.
- System: L1210 leukemia ip in BDF1 mice, survival T/C
- measurement.description: NCI In Vivo Anticancer Drug Screen. Data for tumor model L1210 Leukemia (intraperitoneal) in B6D2F1 (BDF1) mice
- measurement.parameters: endpoint: mean survival time; dose: 200.0 mg/kg/injection; schedule: Q01DX009 (ip); vehicle: Klucel (hydroxypropylcellulose) (HPC); higher = longer survival
Toxic doses and inconclusive results are not listed.

In the examples that follow, each entry is paired with its recorded T/C.
>>> observed("COc1ccc(C)cc1NC(=O)c1ccc(Cl)cc1Cl")
"101 % of control"
>>> observed("CC(C#N)(/C=C/c1ccccc1)Nc1ccccc1N (stereo unspecified)")
"95 % of control"
>>> observed("COc1ccc(NC(=O)c2cccc(C(=O)Nc3ccc(OC)cc3)c2)cc1")
"97 % of control"
>>> observed("CCCCCCc1c(C)nc(N)[nH]c1=O")
"100 % of control"
>>> observed("CCCOc1ccc(C=Nc2ccc(C)cc2)cc1")
"116 % of control"

Provide the reported T/C of each entry below, same order.
1. CC(C)(C)N(Cc1ccccc1)C(=O)Nc1ccccc1
2. COc1ccc(Cl)cc1NC(=O)c1cccc(Cl)c1

[A]
["110 % of control", "110 % of control"]

Numbers sourced from PubChem BioAssay AID248.
